Data provenance is PubChem BioAssay (NCI).

# System: DU-145 prostate
# Assay Protocol: NCI-60 one-dose screen, 48 h (100 = growth as untreated, 0 = no growth, -100 = all killed)
# Test Parameters: 10 µM unless noted
This is part of a sample that, as a whole, favours compounds with a hit. Of some 83,000 tested, about 20% had one in any assay.
Test Readout: growth (%)
Quick reminder: number only, in %, skip the unit.

Exercise: API: value(readout= growth, system= DU-145 prostate, query= CC/C=C\C[C@H](O)C/C=C1/C(=O)C(Cl)=C[C@@H]1C/C=C\CCCC(=O)O )
Key: 75.9

Exercise: API: value(readout= growth, system= DU-145 prostate, query= O=C(Cc1c(F)cccc1Cl)Nc1ccc(S(=O)(=O)Nc2ncccn2)cc1 )
Key: 104

Exercise: API: value(readout= growth, system= DU-145 prostate, query= CC(C)C[C@H](NC(=O)[C@H](Cc1ccccc1)n1ccc(N2CCCCC2)cc1=O)B(O)O )
Key: 41.3

Exercise: API: value(readout= growth, system= DU-145 prostate, query= CSc1nc(-c2cc3ccccc3o2)cc(-c2ccc(Cl)cc2)c1C#N )
Key: 68.5

Exercise: API: value(readout= growth, system= DU-145 prostate, query= CCOC(=O)c1cc(/C(=N\O)c2cc(OC)c(OC)c(OC)c2)n2c(C)cccc12 )
Key: 50.1

Exercise: API: value(readout= growth, system= DU-145 prostate, query= COc1ccc(/C=C/C(=O)c2ccc(B(O)O)cc2)cc1O )
Key: 75.6

====

# Test system: KM12 colon
# Assay Protocol: NCI-60 one-dose screen, 48 h (100 = growth as untreated, 0 = no growth, -100 = all killed)
# Test Parameters: 10 µM unless noted
About 83,000 compounds went through this panel and 20% of them were active in at least one assay; those are over-represented in the sample as a whole.
growth class ranges: bottom (below 30%), middle (30% to below 80%), top (80% or more)

Exercise: Form field 'band' for CC1CCN(C(=O)CSc2nc3sc4c(c3c(=O)[nH]2)CCCC4)CC1
Key: top

Exercise: Form field 'band' for Nc1nc(-c2ccccc2)cs1
Key: top

Exercise: Form field 'band' for COC(=O)CCCCCCN=Cc1c(O)c(O)c(C(C)C)c2cc(C)c(-c3c(C)cc4c(C(C)C)c(O)c(O)c(C=NCCCCCCC(=O)OC)c4c3O)c(O)c12
Key: bottom

Exercise: Form field 'band' for Cc1nc2scc(-c3ccccc3)n2c(=O)c1CCO
Key: top

Exercise: Form field 'band' for C=C1C(=O)O[C@H]2[C@H]1CC/C(Cn1cc(-c3ccsc3)nn1)=C\CC[C@@]1(C)O[C@@H]21
Key: middle

Exercise: Form field 'band' for COc1ccc(/C=C\c2cc(OC)c(OC)c(OC)c2)c(NS(=O)(=O)c2ccc(C(C)(C)C)cc2)c1O
Key: bottom

Exercise: Form field 'band' for Cc1ccc(OCCn2c(C)nn(-c3ccc(Cl)cc3)c2=O)cc1
Key: top

Exercise: Form field 'band' for CCOC(=O)c1cc(/C(=N\O)c2cc(OC)c(OC)c(OC)c2)n2cc(C)cc(C)c12
Key: bottom

Exercise: Form field 'band' for COc1ccc(-c2nc(-c3ccccc3)c(-c3ccccc3)n2C2CC2)cc1OC1CCCCC1
Key: middle

Exercise: Form field 'band' for O=C(Nc1ccc(I)cc1)c1cc([N+](=O)[O-])ccc1O
Key: bottom

Exercise: Form field 'band' for CCN1C(=O)N[C@H]2[C@@H]3NC(=O)c4ccc(Cl)n4[C@@H]3C[C@]21O
Key: bottom

Exercise: Form field 'band' for Clc1ccc([I+]c2ccc(Cl)cc2Cl)c(Cl)c1
Key: middle

Exercise: Form field 'band' for CC(C)CCN(CCCNc1c2c(nc3ccccc13)CCCC2)CCC(C)C
Key: top

Exercise: Form field 'band' for COc1ccc(-n2c(C)cc(-c3ccccc3)c2C)cc1
Key: middle

Exercise: Form field 'band' for CC(=O)Nc1nc(C(=O)N2N=C(C)/C(=C/c3ccc(Cl)cc3)C2=O)cs1
Key: top

Exercise: Form field 'band' for O=c1oc2cc(OS(=O)(=O)c3ccc(F)cc3)ccc2c2c1CCCCC2
Key: middle

Exercise: Form field 'band' for C/C(=C\c1csc(C)n1)[C@@H]1C[C@@H]2O[C@]2(C)CCC[C@H](C)[C@H](O)[C@@H](C)C(=O)C(C)(C)[C@@H](O)CC(=O)N1
Key: bottom

====

# Tested on: NCI/ADR-RES ovarian
# Assay Protocol: NCI-60 one-dose screen, 48 h
# Test Parameters: 10 µM unless noted
Compounds without any hit were thinned out: in the full panel of roughly 83,000, 20% have a hit. Calls of active or inactive are those of the source. Rule for the calls: active = growth percent below 10; inactive = the rest.
The reply should name one outcome from 1 for active, 0 for inactive

Exercise: How was COc1c(NC[C@H]2OC(O)[C@H](O)[C@@H](O)[C@@H]2O)c(=O)c1=O (stereo partly drawn) classified in this test?
Key: 0

Exercise: How was O=C(Cc1c(F)cccc1Cl)Nc1ccc(S(=O)(=O)Nc2ncccn2)cc1 classified in this test?
Key: 0

Exercise: How was O=C1CCCCC=C1C[N+](=O)[O-] classified in this test?
Key: 0

Exercise: How was O=c1oc2cc(OS(=O)(=O)c3ccc(F)cc3)ccc2c2c1CCCCC2 classified in this test?
Key: 0

Exercise: How was O=C1C2=C(C(=O)c3c(O)ccc(O)c31)N(c1cccnc1)Cc1ccccc1O2 classified in this test?
Key: 0

Exercise: How was NC(=O)c1c(NC(=O)c2ccc(OCC3CCCO3)cc2)sc2c1CCCC2 (stereo not drawn) classified in this test?
Key: 0

Exercise: How was COc1cc2nc(N3CCC[C@@H](NC4=CC(=O)c5ccccc5C4=O)C3)nc(N)c2cc1OC classified in this test?
Key: 0

Exercise: How was COc1ccc(/C=C\c2cc(OC)c(OC)c(OC)c2)c(NS(=O)(=O)c2ccc(C(C)(C)C)cc2)c1O classified in this test?
Key: 1

Exercise: How was Cc1oc2ncnc(Nc3ccccc3)c2c1C(=O)NCCO classified in this test?
Key: 0

Exercise: How was Cc1ccc(S(=O)(=O)OCC(=O)Nc2ccc(C(=O)O)c(O)c2)cc1 classified in this test?
Key: 0

Exercise: How was CC(=O)Nc1nc(C(=O)N2N=C(C)/C(=C/c3ccc(Cl)cc3)C2=O)cs1 classified in this test?
Key: 0

Exercise: How was O=C(Nc1ccc(I)cc1)c1cccc([N+](=O)[O-])c1O classified in this test?
Key: 1

Exercise: How was N#Cc1c(NC(=O)c2ccc([N+](=O)[O-])o2)[n+]([O-])c2cc(F)c(F)cc2[n+]1[O-] classified in this test?
Key: 0

Exercise: How was c1cc(-c2ccc3c(c2)OCO3)n2nccc2n1 classified in this test?
Key: 0

Exercise: How was O=C1N=C(c2c(-c3[nH]c(=O)c4ccc(Br)cc4c3O)c(O)c3ccccc3c2O)C(=O)c2cc(Br)ccc21 classified in this test?
Key: 1

Exercise: How was Cc1cccc(NC(=O)c2sc3nc4c(cc3c2N)CCC4)c1C classified in this test?
Key: 1

Exercise: How was C=C1C(=O)O[C@H]2[C@H]1CC/C(COC(=O)NCc1cc(OC)c(OC)c(OC)c1)=C\CC[C@@]1(C)O[C@@H]21 classified in this test?
Key: 0

Exercise: How was COc1ccc(C(=O)c2cc(OC)c(OC)c(OC)c2)cc1/C=C/C(=O)c1ccc2c(c1)OCO2 classified in this test?
Key: 1

====

# Test system: ACHN renal
# Assay Protocol: NCI-60 one-dose screen, 48 h (100 = growth as untreated, 0 = no growth, -100 = all killed)
# Test Parameters: 10 µM unless noted
This is part of a sample that, as a whole, favours compounds with a hit. Of some 83,000 tested, about 20% had one in any assay.
Test Readout: growth (%)
Quick reminder: number only, in %, skip the unit.

Exercise: API: value(readout= growth, system= ACHN renal, query= COc1cc(Cn2c(-c3nonc3N)nc3ccccc32)ccc1C )
Key: 41.2

Exercise: API: value(readout= growth, system= ACHN renal, query= COc1cc(NCCCN=C(N)NC(N)=NC(C)C)c2ncccc2c1 )
Key: 94

Exercise: API: value(readout= growth, system= ACHN renal, query= CCn1cc(C(=O)O)c(=O)c2cc(F)c(N3CCN(S(=O)(=O)c4c(C)cc(C)cc4C)CC3)cc21 )
Key: 75.8

Exercise: API: value(readout= growth, system= ACHN renal, query= O=S(=O)(NCCCNc1nccc(-c2c(-c3ccc(O)cc3)nc3sccn23)n1)c1ccc(F)cc1 )
Key: -5.95

Exercise: API: value(readout= growth, system= ACHN renal, query= COc1cc(OC)c(C(=O)/C=C/c2ccc(C#N)cc2)c(OC)c1 )
Key: 17.5

Exercise: API: value(readout= growth, system= ACHN renal, query= CCn1cc(C(=O)O)c(=O)c2cc(F)c(N3CCN(S(=O)(=O)c4cccc5ccccc45)CC3)cc21 )
Key: -3.57

Exercise: API: value(readout= growth, system= ACHN renal, query= Cc1ccc(-c2csc3nc(C)c(CCCl)c(=O)n23)cc1 )
Key: 99

Exercise: API: value(readout= growth, system= ACHN renal, query= Cc1ccc(Oc2nc3ccccc3cc2-c2nnc(Cn3c(COc4ccccc4)nc4ccccc43)o2)cc1 )
Key: 49.9

Exercise: API: value(readout= growth, system= ACHN renal, query= COc1cc(/C=C2\C=C(c3ccc(F)cc3)N(Cc3ccccc3)C2=O)cc(OC)c1OC )
Key: 73.1

Exercise: API: value(readout= growth, system= ACHN renal, query= O=C(Nc1ccc(F)c(Cl)c1)c1n[nH]c(=O)c2ccccc12 )
Key: 89.1

Exercise: API: value(readout= growth, system= ACHN renal, query= Cc1oc2ncnc(Nc3ccccc3)c2c1C(=O)NCCO )
Key: 91.8

Exercise: API: value(readout= growth, system= ACHN renal, query= COc1cc(C(=O)N2CCN(C(=O)c3ccco3)CC2)c(N)cc1OCc1ccccc1 )
Key: 99.6

Exercise: API: value(readout= growth, system= ACHN renal, query= COc1cc(/C=C/C(=O)c2ccc(NC(=O)CN3CCN(c4cc5c(cc4F)c(=O)c(C(=O)O)cn5C4CC4)CC3)cc2)cc(OC)c1OC )
Key: 10.8

Exercise: API: value(readout= growth, system= ACHN renal, query= O=C(c1ccncc1)N1N=C(c2ccc(Cl)cc2)CC1c1c[nH]c2ccccc12 (stereo not given) )
Key: 94.8

Exercise: API: value(readout= growth, system= ACHN renal, query= CCCCCC(=O)OCc1ccccc1 )
Key: 98.1
